experiment: Cmax in mouse brain at 48 mmol/kg, iv after 25 mins; format: ADME, organism-based; parameters: dose 48 mmol/Kg, time 25 min, route iv
Experimental readout: Cmax (µg/g)
Kindly provide the numeric value in µg/g only, without the unit symbol.

(Q) Which Cmax reading was recorded for the compound CC(C)Cc1ccc(C(C)C(=O)O)cc1 (stereo unspecified) [IBUPROFEN] ?
(A) 10.7

* * *

For each of the compounds below, state its efflux ratio.
assay: Efflux ratio of apparent permeability across basolateral to apical side over apical to basolateral side in MDCK-MDR1 cells; format: ADME, cell-based, Canis lupus familiaris; details: dog

(Q) Which efflux ratio reading was recorded for the compound CC(C)CCN(c1nc(C#N)nc(N2CCOCC2)n1)C(C)c1ccc(F)cc1 (configuration not stated) ?
(A) 0.223

(Q) Which efflux ratio reading was recorded for the compound N#Cc1nc(N2CCOCC2)nc(N(Cc2ccc(F)cc2)CC2CCCNC2)n1 (configuration not stated) ?
(A) 17.2

* * *

For each of the compounds below, state its Kp.
assay: Ratio of AUC in Brain to plasma in mouse at 10 mg/kg, po; assay type: ADME, organism-based; conditions: brain and plasma, read-out: Ratio AUC

(Q) Which Kp reading was recorded for the compound CC(C)CCN(c1nc(C#N)nc(N2CCOCC2)n1)C(C)c1ccc(F)cc1 (configuration not stated) ?
(A) 0.52

(Q) Which Kp reading was recorded for the compound N#Cc1nc(N2CCOCC2)nc(N(Cc2ccc(F)cc2)CC2CCCNC2)n1 (configuration not stated) ?
(A) 0.15

* * *

For each of the molecules below, state its Papp.
assay: Apparent permeability in MDCKII-MDR1 cells; type: ADME, cell-based, Canis lupus familiaris; conditions: dog, MDCK-MDR1
Kindly provide the numeric value in ×10⁻⁶ cm/s only, without the unit symbol.

(Q) Which Papp reading was recorded for the molecule CC(c1ccc(O)c(O)c1)N(C)C.Cl (stereo not drawn) ?
(A) 1.13

(Q) Which Papp reading was recorded for the molecule CC(c1cccc(O)c1O)N(C)C.Cl (stereo not drawn) ?
(A) 23.9

(Q) Which Papp reading was recorded for the molecule CC(c1cc(O)ccc1O)N(C)C.Cl (stereo not drawn) ?
(A) 26.3

* * *

assay: AUC in mouse brain at 48 mmol/kg, iv after 25 mins; assay type: ADME, organism-based; design: time 25 min, dose 48 mmol/Kg, route iv; settings: in vivo
Experimental readout: AUC
Reply with the number and its unit after it.

(Q) Which AUC reading was recorded for the molecule CC(C)Cc1ccc(C(C)C(=O)O)cc1 (stereo unspecified) [IBUPROFEN] ?
(A) 1860 µg·min/g
